Experiment: compounds altering Cy5-DNA-NS3h complex signal – biochemical, LOPAC1280, artefact control for HCV NS3 helicase inhibitor project (AID 687037)
Details: Cy5-DNA-NS3h complex fluorescence interference counterscreen
A collection of molecules and their measured fluorescence ratio (interference)
Measurement type: fluorescence ratio (interference)

molecule=Cc1ccccc1/C=C/C1=NCCN1 measurement_type="fluorescence ratio (interference)" measured_value=1
molecule=N.N.O=C(O)C1(C(=O)O)CCC1.[Pt+2] measurement_type="fluorescence ratio (interference)" measured_value=1
molecule=CCCCCCCCCCCCCCC[C@H](O)[C@H](N)CO measurement_type="fluorescence ratio (interference)" measured_value=0.9
molecule="O=C(O)CCC(C(=O)O)N1C(=O)c2ccccc2C1=O (stereo not given)" measurement_type="fluorescence ratio (interference)" measured_value=1
molecule=CCCC[C@@]1(C2CCCC2)Cc2cc(OCC(=O)O)c(Cl)c(Cl)c2C1=O measurement_type="fluorescence ratio (interference)" measured_value=1
molecule=N.N.N.N.N.N.N.N.N.N.N.N.N.N.O.O.[Cl-].[Cl-].[Cl-].[Cl-].[Cl-].[Cl-].[Ru+4].[Ru+5].[Ru+5] measurement_type="fluorescence ratio (interference)" measured_value=0
molecule=N[C@@H](CCC(=O)N[C@H](CSN=O)C(=O)NCC(=O)O)C(=O)O measurement_type="fluorescence ratio (interference)" measured_value=1
molecule=COc1cccc2c1[C@@H]1CN(CCCCn3c(=O)[nH]c4c(sc5ncc(-c6ccccc6)nc54)c3=O)C[C@@H]1CO2 measurement_type="fluorescence ratio (interference)" measured_value=0.9
molecule=CCCCOC(=O)NS(=O)(=O)c1sc(CC(C)C)cc1-c1ccc(Cn2c(CC)nc3c(C)cc(C)nc32)cc1 measurement_type="fluorescence ratio (interference)" measured_value=1
molecule=CN1CCc2ccccc2Cc2[nH]c3ccccc3c2CC1 measurement_type="fluorescence ratio (interference)" measured_value=1

----------
Test: growth inhibition, single agents and combos, LFS_MB_1R, cell-based, cisplatin or BGB combos, synergistic combos for chromothripsis tumors (AID 1671452);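 also: cells exposed for 96 hours before readout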
Conditions: LFS_MB_1R medulloblastoma cells, at 0.5 µM
Activity calls are given as the source filed them. Cut-off read from the data, not from the text of the source: active = inhibition above about 80%; inactive = the rest.
Labels: active, inactive

compound="CC1OC(CC(=O)O)CC2=C1C(=O)c1c(O)cccc1C2=O (stereo unspecified)" group_label=active
compound=C[C@@H]1O[C@@H](O[C@@H]2[C@@H](O)[C@H](OCCc3ccc(O)c(O)c3)O[C@H](CO)[C@H]2OC(=O)C=Cc2ccc(O)c(O)c2)[C@H](O)[C@H](O)[C@H]1O group_label=inactive
compound=Cc1c(Br)cc(NCC(=O)N/N=C/c2cc([N+](=O)[O-])ccc2O)cc1Br group_label=inactive
compound="C=C1CCC(O)CC1=CC=C1CCCC2(C)C1CCC2C(C)C=CC(C)C(C)C (stereo unspecified)" group_label=inactive
compound="Nc1ncn(C2OC(CO)C(O)C2O)c(=O)n1 (stereo unspecified)" group_label=inactive
compound=Cc1cc(C#N)cc(C)c1Oc1nc(Nc2ccc(C#N)cc2)nc(N)c1Br group_label=inactive

----------
Assay: viability loss with induced miR-34 in A549 – imaging, A549 dox-inducible miR-34, nuclei and caspase counts, primary screen (AID 1347080)
Details: A549 miR-34 inducible, Hoechst nuclei count, 48 h; stronger effect = lower value; cell number ratio, induced over uninduced
A collection of molecules and their measured fold change
Measurement type: fold change

molecule="COc1ccc2c3c1OC1CC(O)C=C[C@@]31CCN(C)C2 (stereo partly drawn)" measurement_type="fold change" measured_value=0.977
molecule="CCCCC[C@H](O)/C=C/[C@@H]1[C@@H](C/C=C\\CCCC(=O)O)[C@@H](O)C[C@H]1O (tested in a mixture with another compound)" measurement_type="fold change" measured_value=0.919
molecule="CC1CN(CC(=O)Nc2ccc3c(c2)Cc2cccc(-c4cc(=O)cc(N5CCOCC5)o4)c2S3)CC(C)O1 (stereo not drawn)" measurement_type="fold change" measured_value=0.994
molecule="CN[C@H](CC(C)C)C(=O)N[C@H]1C(=O)N[C@@H](CC(N)=O)C(=O)N[C@H]2C(=O)N[C@H]3C(=O)N[C@H](C(=O)N[C@H](C(=O)O)c4cc(O)cc(O)c4-c4cc3ccc4O)[C@H](O)c3ccc(c(Cl)c3)Oc3cc2cc(c3O[C@@H]2OC(CO)[C@@H](O)[C@H](O)[C@H]2O[C@H]2C[C@](C)(N)[C@H](O)[C@H](C)O2)Oc2ccc(cc2Cl)[C@H]1O (stereo partly drawn)" measurement_type="fold change" measured_value=0.843
molecule=O=S(=O)(O)CCN1CCOCC1 measurement_type="fold change" measured_value=0.906
molecule="C[C@]12CCC(=O)C=C1CC[C@@H]1[C@H]2C(O)C[C@@]2(C)[C@H]1CC[C@@]2(O)C(=O)CO (stereo partly drawn)" measurement_type="fold change" measured_value=0.923
molecule="COc1ccc2c(c1)CCC1C2CC[C@@]2(C)C1CC[C@@H]2NCCCCCCN1C(=O)CCC1=O (stereo partly drawn)" measurement_type="fold change" measured_value=1.08
molecule="CCCCC/C=C\\C\\C=C/C=C/C=C/[C@@H](SCC(NC(C)=O)C(=O)O)[C@@H](O)CCCC(=O)O (stereo partly drawn)" measurement_type="fold change" measured_value=0.952

----------
Assay: viability loss with induced miR-34 in A549 – imaging, A549 dox-inducible miR-34, nuclei and caspase counts, primary screen (AID 1347080)
Conditions: A549 miR-34 inducible, Hoechst nuclei count, 48 h; stronger effect = lower value; cell number ratio, induced over uninduced
Mark Criterion met for fold change under 0.9, Criterion not met if at or over.

compound=CC(C)Oc1ccc(-c2cnc3c(-c4ccnc5ccccc45)cnn3c2)cc1 group_label="Criterion met"
compound="O=C(Nc1ncc(SCCN2CCCC2)s1)[C@]1(c2ccc(S(=O)(=O)C3CC3)cc2)CC1C1CCCCC1 (stereo partly specified)" group_label="Criterion not met"

----------
Experiment: viability loss with induced miR-34 in A549 – imaging, A549 dox-inducible miR-34, nuclei and caspase counts, primary screen (AID 1347080)
Conditions: A549 miR-34 inducible, Hoechst nuclei count, 48 h; measured here: relative caspase fold change +Dox/-Dox
A collection of compounds and their measured fold change
Measurement type: fold change

compound=[K+] measured_value=0.429
compound=CC(C)c1ccc(NC(=O)Cn2cnc3c2c(=O)n(C)c(=O)n3C)cc1 measured_value=1.42
compound=CC(=O)c1sc(Nc2ccccc2)nc1C measured_value=0.648
compound=O=NO measured_value=1.01
compound=CCCn1c(=O)[nH]c(=O)c2[nH]cnc21 measured_value=1.45
compound=C[C@]12C=CC(=O)C=C1CC[C@@H]1[C@H]2C(=O)C[C@@]2(C)[C@H]1CC[C@@]2(O)C(=O)CO measured_value=0.898
compound="NC(Cc1cc(I)c(Oc2cc(I)c(O)c(I)c2)c(I)c1)C(=O)O (configuration not stated)" measured_value=1.04
compound=CCCC(=O)Nc1ncnc2c1ncn2[C@@H]1O[C@@H]2OP(=O)(O)OC[C@H]2[C@H]1OC(=O)CCC measured_value=1.18
compound="CN(C)C(=O)C(O)C(Cc1ccccc1)NC(=O)c1cc2cc(Cl)ccc2[nH]1 (configuration not stated)" measured_value=0.88
compound="CN1Cc2sccc2C(c2ccc(O)c(O)c2)C1 (configuration not stated)" measured_value=2.13
compound=CCCCCC(=O)/C=C/C=C\CCCCCCCC(=O)O measured_value=1.29
compound=CCCCC/C=C\C/C=C\CCCCCCCC(=O)O[C@@H](CO)COC(=O)CCCCCCCCCCCCCCCCC measured_value=1.31
compound="Nc1nc(Cl)nc2c1ncn2[C@@H]1O[C@H](CO)[C@H](O)C1O (some centres not stated)" measured_value=1.14
compound="CC1(C)S[C@@H]2C(NC(=O)Cc3ccccc3)C(=O)N2C1C(=O)O (some centres not stated)" measured_value=0.906
compound=c1ccc(CN(CCN(Cc2ccccn2)Cc2ccccn2)Cc2ccccn2)nc1 measured_value=2.99
compound=CC(C)(C)n1nc(Cc2cccc3ccccc23)c2c(N)ncnc21 measured_value=1.15
compound="CC1CCN(CCC2CCCN2S(=O)(=O)c2cccc(O)c2)CC1 (configuration not stated)" measured_value=0.546
compound=C=C1C[C@@]23CC[C@H]4[C@@](C)(CCC[C@@]4(C)C(=O)O)[C@@H]2CC[C@]1(O)C3 measured_value=1.06
compound=CCCCCCCC/C=C\CCCCCCCC(=O)OC[C@H](CO)OC(=O)CCCCCCC/C=C\CCCCCCCC measured_value=0.954
compound=CC(C)(C)C(=O)Nc1ccc2c(c1)C(=O)C(=O)c1ccccc1-2 measured_value=0.69
compound="COc1cccc2c(=O)n(C(C)Cn3cccn3)cnc12 (configuration not stated)" measured_value=1.36
compound=Cc1csc(CNc2nccc(-c3cn(C)nc3C)n2)n1 measured_value=0.815
compound="C=C1C(=O)OC2C=C(C)CCC=C(C)CCC12 (configuration not stated)" measured_value=0.847
compound=CN1CCN(S(=O)(=O)c2ccc(-c3cnc(N)c(C(=O)Nc4cccnc4)n3)cc2)CC1 measured_value=0.445
compound=COc1ccccc1N1CCN(CCN(C(=O)c2ccc(F)cc2)c2ccccn2)CC1 measured_value=1.52
compound=NS(=O)(=O)c1ccc(C(=O)NCc2ccccc2)cc1 measured_value=0.5
compound="C[C@]12CC(O)C3C(CCC4=CC(=O)CC[C@@]43C)C1CCC2C(=O)CO (some centres not stated)" measured_value=2.3
compound="CC[C@]1(O)CC2CN(CCc3c([nH]c4ccccc34)[C@@](C(=O)OC)(c3cc4c(cc3OC)N(C=O)C3[C@@](O)(C(=O)OC)C(OC(C)=O)[C@]5(CC)C=CCN6CC[C@]43C65)C2)C1 (some centres not stated)" measured_value=1.38
compound="OCC1OC(c2ccc(Cl)c(Cc3ccc(OC4CCOC4)cc3)c2)C(O)C(O)C1O (configuration not stated)" measured_value=0.234
compound=CN(CCc1ccccn1)C(=O)c1ccc2sc(N)nc2c1 measured_value=0.927
compound="O=C(O[C@H]1CN2CCC1CC2)N1CCc2ccccc2C1c1ccccc1 (some centres not stated)" measured_value=0.636
compound=COc1ccc(CN(C)C(=O)Nc2nc(C)n(C)n2)c2cccnc12 measured_value=0.916
compound="COc1cc(C(O)CO)ccc1OS(=O)(=O)O (configuration not stated)" measured_value=1.08
compound=CC(C)(C)C(=O)OCOC(=O)[C@@H]1N2C(=O)[C@@H](N=CN3CCCCCC3)[C@H]2SC1(C)C measured_value=0.721
compound="CC(C)c1c(C(=O)Nc2ccccc2)c(-c2ccccc2)c(-c2ccc(F)cc2)n1CCC(O)CC(O)CC(=O)O (configuration not stated)" measured_value=0.989
compound="CN1CCc2cc(Cl)c(O)cc2C(c2ccccc2)C1 (configuration not stated)" measured_value=0.98
compound=NC(=O)C(=O)O measured_value=1.23
compound=Cc1cc(C=Cc2ccc3cc(N(C)C)ccc3[n+]2C)c(C)n1-c1ccccc1 measured_value=1.04
compound="CCc1cnn2c(NCc3ccc[n+]([O-])c3)cc(N3CCCCC3CCO)nc12 (configuration not stated)" measured_value=0.956
compound=N#Cc1ccc2[nH]cc(CCCCN3CCN(c4ccc5oc(C(N)=O)cc5c4)CC3)c2c1 measured_value=0.515
compound=CCCCC[C@H](O)C/C=C1/C(=O)C=C[C@@H]1C/C=C\CCCC(=O)O measured_value=0.855
compound="COc1ccc(-c2cc(=O)c3c(O)cc(OC4OC(COC5OC(C)C(O)C(O)C5O)C(O)C(O)C4O)cc3o2)cc1O (configuration not stated)" measured_value=0.985
